biological target: UniProtKB P26358; assay: Glal restriction endonuclease-coupled DNA methylation assay (Test A); format: biochemical; conditions: Table 1; Glal restriction endonuclease-coupled DNA methylation assay; read-out: IC50 (μM), Dnmt1 inhibition activity
Sequence (P26358 whole entry): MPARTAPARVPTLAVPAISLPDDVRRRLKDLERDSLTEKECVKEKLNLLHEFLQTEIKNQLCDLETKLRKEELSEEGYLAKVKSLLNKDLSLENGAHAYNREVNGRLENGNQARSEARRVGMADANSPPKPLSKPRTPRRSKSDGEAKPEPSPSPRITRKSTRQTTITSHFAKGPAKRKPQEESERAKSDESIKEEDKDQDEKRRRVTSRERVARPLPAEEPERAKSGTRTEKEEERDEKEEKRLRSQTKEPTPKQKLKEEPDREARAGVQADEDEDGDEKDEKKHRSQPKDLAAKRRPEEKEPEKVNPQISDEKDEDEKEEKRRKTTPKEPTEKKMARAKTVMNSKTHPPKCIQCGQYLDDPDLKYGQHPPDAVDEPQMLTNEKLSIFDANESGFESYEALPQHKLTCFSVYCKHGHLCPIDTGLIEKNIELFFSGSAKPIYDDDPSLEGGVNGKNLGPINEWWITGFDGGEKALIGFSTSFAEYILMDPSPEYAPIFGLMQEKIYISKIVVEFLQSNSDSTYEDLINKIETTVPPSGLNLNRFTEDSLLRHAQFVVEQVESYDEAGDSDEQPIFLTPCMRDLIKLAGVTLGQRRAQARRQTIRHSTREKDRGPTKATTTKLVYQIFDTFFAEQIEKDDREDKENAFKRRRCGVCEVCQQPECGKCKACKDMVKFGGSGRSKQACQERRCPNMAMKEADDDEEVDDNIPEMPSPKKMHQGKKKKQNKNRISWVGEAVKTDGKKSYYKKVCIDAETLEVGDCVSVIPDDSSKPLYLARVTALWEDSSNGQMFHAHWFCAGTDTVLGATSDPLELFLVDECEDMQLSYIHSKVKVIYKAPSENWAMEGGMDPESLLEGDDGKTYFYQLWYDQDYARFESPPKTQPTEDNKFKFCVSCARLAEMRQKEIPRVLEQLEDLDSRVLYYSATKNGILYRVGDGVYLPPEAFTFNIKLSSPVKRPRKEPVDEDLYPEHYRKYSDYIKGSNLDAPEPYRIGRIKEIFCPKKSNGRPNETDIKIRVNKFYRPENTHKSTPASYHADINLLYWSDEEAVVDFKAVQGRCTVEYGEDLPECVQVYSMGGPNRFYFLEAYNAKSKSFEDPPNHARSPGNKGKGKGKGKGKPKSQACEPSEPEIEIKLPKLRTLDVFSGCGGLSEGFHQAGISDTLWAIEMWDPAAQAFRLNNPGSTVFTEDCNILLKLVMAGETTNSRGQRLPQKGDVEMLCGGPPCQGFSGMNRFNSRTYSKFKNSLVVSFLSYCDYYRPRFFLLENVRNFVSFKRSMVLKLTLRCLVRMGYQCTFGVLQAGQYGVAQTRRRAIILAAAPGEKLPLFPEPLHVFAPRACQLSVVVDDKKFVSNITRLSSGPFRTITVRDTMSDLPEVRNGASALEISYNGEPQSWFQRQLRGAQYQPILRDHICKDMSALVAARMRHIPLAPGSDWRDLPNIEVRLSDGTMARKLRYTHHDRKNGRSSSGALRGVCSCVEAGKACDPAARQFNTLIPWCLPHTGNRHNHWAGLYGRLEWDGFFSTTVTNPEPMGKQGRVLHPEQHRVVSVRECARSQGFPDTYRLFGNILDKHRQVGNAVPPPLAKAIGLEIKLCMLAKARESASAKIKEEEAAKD
measure: log10 IC50 (log10 of the value in µM)
log10 IC50, µM

Query (compound): O=c1c(O)c(-c2ccc(O)c(O)c2)oc2c(O)c(O)cc(O)c12 ; field requested: log10 IC50
0.46

I have this compound here, O=C(O)c1cc(O)c2c(c1)[C@@H]([C@H]1c3cc(C(=O)O)cc(O)c3C(=O)c3c(O[C@H]4O[C@H](CO)[C@@H](O)[C@H](O)[C@H]4O)cccc31)c1cccc(O[C@H]3O[C@H](CO)[C@@H](O)[C@H](O)[C@H]3O)c1C2=O [IV, Sennoside A, reference compound] , and I need its recorded log10 IC50.
-0.35

log10 IC50 lookup needed for O=C1C=CC(=O)c2c(O)cccc21 , thanks.
0.23

// returns reported log10 IC50 for input CC(=O)NCCc1ccc(O)c(-c2c(O)c(O)c3c(c2O)C(=O)c2c(cc(O)c(C(=O)O)c2C(=O)O)C3=O)c1
0.32

Please report the recorded log10 IC50 for O=C(O)c1cc(O)c2c(c1)[C@@H]([C@@H]1c3cc(C(=O)O)cc(O)c3C(=O)c3c(O[C@H]4O[C@H](CO)[C@@H](O)[C@H](O)[C@H]4O)cccc31)c1cccc(O[C@H]3O[C@H](CO)[C@@H](O)[C@H](O)[C@H]3O)c1C2=O [V, Sennoside B, reference compound] .
-0.35

Further cases:
So what does the record say about log10 IC50 for CSc1nc2cc(Cl)c(Oc3cccc(Cl)c3Cl)cc2[nH]1 [XI, Triclabendazole, reference compound] ?
0.79

Reported log10 IC50 for Oc1cc(Cl)ccc1Oc1ccc(Cl)cc1Cl [III, Triclosan, reference compound] : what is it?
0.58

Which measured log10 IC50 value corresponds to O=C1c2ccccc2C(=O)c2c1ccc(O)c2O ?
1.04

What log10 IC50 value was documented for this compound, O=C(O)C(S)C(S)C(=O)O (stereo not drawn) [IX, 2,3-Dimercaptosuccinic Acid, reference compound] ?
-0.48
